test system: HCC-15; experiment: relative viability (nuclei count vs DMSO), 5 days (fraction); higher = more cells survive; conditions: first compound 500 µM
Listing of recorded relative viability by entry.

[
  {
    "COMPOUND": "O=C(O)CCCCC(CCSCc1ccccc1)SCc1ccccc1 (stereo not given) [CPI-613] + CCNC(=O)c1noc(-c2cc(C(C)C)c(O)cc2O)c1-c1ccc(CN2CCOCC2)cc1 [Luminespib] (partner 0.01 µM)",
    "relative viability": 0.0498
  },
  {
    "COMPOUND": "O=C(O)CCCCC(CCSCc1ccccc1)SCc1ccccc1 (stereo not given) [CPI-613] + COc1cccc2cc(-c3nc([C@H]4CC[C@H](C(=O)O)CC4)n4ncnc(N)c34)[nH]c12 [OSI-027] (partner 0.5 µM)",
    "relative viability": 0.0388
  },
  {
    "COMPOUND": "O=C(O)CCCCC(CCSCc1ccccc1)SCc1ccccc1 (stereo not given) [CPI-613] + N=C(N)NC(=N)NCCc1ccccc1 [Phenformin] (partner 250 µM)",
    "relative viability": 0.0244
  },
  {
    "COMPOUND": "O=C(O)CCCCC(CCSCc1ccccc1)SCc1ccccc1 (stereo not given) [CPI-613] + O=C(CCCCCCC(=O)Nc1ccccc1)NO [Vorinostat] (partner 1 µM)",
    "relative viability": 0.0657
  },
  {
    "COMPOUND": "O=C(O)CCCCC(CCSCc1ccccc1)SCc1ccccc1 (stereo not given) [CPI-613] + O=C(c1cc(Cc2n[nH]c(=O)c3ccccc23)ccc1F)N1CCN(C(=O)C2CC2)CC1 [Olaparib] (partner 8 µM)",
    "relative viability": 0.0853
  }
]
